# credit: ChEMBL document CHEMBL3632591

biological target: Cytochrome P450 2C9 (Homo sapiens)
Sequence (P11712 whole entry): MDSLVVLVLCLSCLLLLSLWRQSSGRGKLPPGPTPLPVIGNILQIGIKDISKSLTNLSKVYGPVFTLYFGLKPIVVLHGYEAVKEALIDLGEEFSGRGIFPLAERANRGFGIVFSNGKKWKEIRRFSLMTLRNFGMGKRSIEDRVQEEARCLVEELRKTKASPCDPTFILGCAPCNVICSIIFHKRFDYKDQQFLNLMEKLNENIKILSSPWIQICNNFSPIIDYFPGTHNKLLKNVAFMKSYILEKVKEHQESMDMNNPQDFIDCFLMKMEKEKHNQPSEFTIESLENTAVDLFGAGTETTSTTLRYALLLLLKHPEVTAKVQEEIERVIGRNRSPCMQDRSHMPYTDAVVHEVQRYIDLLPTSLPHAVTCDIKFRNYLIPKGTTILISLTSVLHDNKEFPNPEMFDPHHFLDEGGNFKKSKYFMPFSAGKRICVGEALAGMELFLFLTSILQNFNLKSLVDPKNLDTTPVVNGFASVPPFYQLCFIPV
pIC50: −log10 of the molar value.
Readout kind: pIC50

Fill in: Cytochrome P450 2C9 (Homo sapiens) pIC50 for `COc1ccc2c(O[C@H]3CCN4C(=O)N(C)CCCCC=C[C@@H]5C[C@@]5(C(=O)NS(=O)(=O)C5(C)CC5)NC(=O)[C@@H]4C3)cc(-c3nc(C(F)(F)F)cs3)nc2c1C` = ≤ 5.00

----------
assay: Oral bioavailability in Sprague-Dawley rat at 10 mg/kg administered as single dose; format: ADME, organism-based; details: in vivo
This section presents molecules with their documented bioavailability values.

# Cpd smiles, bioavailability
data = [
    ("COc1ccc2c(O[C@H]3CCN4C(=O)N(C)CCCCC=C[C@@H]5C[C@@]5(C(=O)NS(=O)(=O)C5(C)CC5)NC(=O)[C@@H]4C3)cc(-c3nc(C(F)(F)F)cs3)nc2c1C", "45%"),
]

We next turn to a different molecule, shown below.
For this molecule ( `COc1ccc2c(O[C@H]3C[C@H]4C(=O)N(C)CCCC/C=C/[C@@H]5C[C@@]5(C(=O)NS(=O)(=O)C5(C)CC5)NC(=O)N4C3)cc(-c3nc(C(F)(F)F)cs3)nc2c1C` ), measured bioavailability is 18%
